Test: Xamoterol concentration in plasma and brain after s.c. injection
Format: in vivo
Conditions: C57Bl/6, mouse, plasma, sc; mice, 3 mg/kg s.c., 30 minutes; read-out: Plasma
Measurement name: concentration at 30 min (ng/mL)
One number for each entry, in ng/mL.

Q: Given the molecule O=C(NCCNCC(O)COc1ccc(O)cc1)N1CCOCC1 (racemic) , what is its reported concentration at 30 min?
Result: 274

* * *

Assay: Xamoterol concentration in plasma and brain after s.c. injection
Format: in vivo
Settings: C57Bl/6, mouse, plasma, sc; mice, 3 mg/kg s.c., 2 hours; read-out: Plasma
Measurement name: concentration at 2 h (ng/mL)
Numbers only, in ng/mL.

Q: Given the compound O=C(NCCNCC(O)COc1ccc(O)cc1)N1CCOCC1 (racemic) , what is its reported concentration at 2 h?
Result: 4.7
